Test system: Colletotricum lagenarium
experiment: Cucumber Anthracnose greenhouse one-day protectant test
Format: in vivo
protocolConditions: Cucumis sativus, 24 h, cucumber plants, one-day protectant test, 200 ppm application rate; read-out: COLLLA percent control rating
Reported pest or weed control at 200 ppm is given for each of the following compounds.

Sample answers from the record:
>>> df
                                   compound  measuredvalue
0  O=C1CNC(c2cc(C=Cc3ccccc3)cc(-c3ccsc3)c2)=NN1CC(F)(F)F [Compound 26]       0 to 49%
1  Cc1cc(C)cc(C2=NN(CC(F)(F)F)C(=O)C(SC3CCCCC3)N2)c1 (stereo not drawn) [Compound 37]     80 to 100%
2  O=c1cnc(-c2ccc(N3CCOCC3)cc2)nn1CC(F)(F)F [Compound 77]     80 to 100%
3  O=C1CNC(c2ccc(-c3ccc(C(F)(F)F)cc3)nc2)=NN1CCF [Compound 35]      50 to 79%
4  O=C1C(SC2CCCCC2)NC(c2cccc(/C=C\c3ccccc3)c2)=NN1CC(F)(F)F (stereo not drawn) [Compound 47]     80 to 100%
5  O=C1CNC(c2cc(Br)cc(-c3ccsc3)c2)=NN1Cc1ccccc1 [Compound 68]       0 to 49%
6  Cc1cc(C2=NN(CC(F)(F)F)C(=O)C(SC3CCCCC3)N2)ccc1Br (stereo not drawn) [Compound 43]     80 to 100%
7  O=C1CNC(c2cc(-c3ccsc3)cc(-c3ccsc3)c2)=NN1CC(F)(F)F [Compound 61]       0 to 49%
8  CON=C(c1ccccc1)c1cccc(C2=NN(CC(F)(F)F)C(=O)C(SC3CCCCC3)N2)c1 (stereo not drawn) [Compound 56]       0 to 49%
9  O=c1cnc(-c2cccc(C(=NOCc3ccccc3)c3ccccc3)c2)nn1CC(F)(F)F [Compound 95]       0 to 49%

pest or weed control at 200 ppm of O=C1CNC(c2cc(Cl)cc(Cl)c2)=NN1CN1CCOCC1 [Compound 15] on Colletotricum lagenarium?
0 to 49%

pest or weed control at 200 ppm of O=C1CNC(c2cccc(OCc3ccccc3)c2)=NN1c1cccc(Br)c1 [Compound 21] on Colletotricum lagenarium?
0 to 49%

pest or weed control at 200 ppm of O=C1CNC(c2cccc(OCc3ccccc3)c2)=NN1CCF [Compound 19] on Colletotricum lagenarium?
0 to 49%

---

Tested on: Colletotricum lagenarium
experiment: Cucumber Anthracnose greenhouse one-day protectant test
Assay type: in vivo
protocolConditions: Cucumis sativus, 24 h, cucumber plants, one-day protectant test, 200 ppm application rate; read-out: COLLLA percent control rating
Reported pest or weed control at 200 ppm is given for each of the following compounds.

Sample answers from the record:
In [3]: df
Out[3]:
                                   compound                      measurename  measuredvalue
0  CCCCN1N=C(c2cc(-c3ccsc3)cc(-c3ccsc3)c2)NCC1=O [Compound 62]  pest or weed control at 200 ppm       0 to 49%
1  N#CCCN1N=C(c2cccc(OCc3ccccc3)c2)NCC1=O [Compound 18]  pest or weed control at 200 ppm      50 to 79%
2  Cc1cc(C)cc(C2=NN(CC(F)(F)F)C(=O)C(OC3CCCCC3)N2)c1 (stereo not drawn) [Compound 41]  pest or weed control at 200 ppm      50 to 79%
3  O=c1cnc(-c2cc(Br)cc(-c3ccsc3)c2)nn1CC(F)(F)F [Compound 84]  pest or weed control at 200 ppm      50 to 79%
4  O=C1CNC(c2cc(Br)cc(-c3ccsc3)c2)=NN1CCc1ccccc1 [Compound 69]  pest or weed control at 200 ppm       0 to 49%

What value of pest or weed control at 200 ppm has been reported for the following compound? O=C1CNC(c2cccc(Oc3nnnn3-c3ccccc3)c2)=NN1CC(F)(F)F [Compound 28]
0 to 49%

What value of pest or weed control at 200 ppm has been reported for the following compound? O=C1CNC(c2cccc(OS(=O)(=O)C(F)(F)F)c2)=NN1CC(F)(F)F [Compound 23]
0 to 49%

What value of pest or weed control at 200 ppm has been reported for the following compound? Cc1cc(C)cc(C2=NN(CC(F)(F)F)C(=O)C(SCC(=O)O)N2)c1 (stereo not drawn) [Compound 42]
80 to 100%

What value of pest or weed control at 200 ppm has been reported for the following compound? O=C1CNC(c2ccc(Cl)c(Cl)c2)=NN1CO [Compound 9]
0 to 49%

---

Tested on: Pyricularia oryzae
experiment: whole plant or invertebrate
Format: in vivo
protocolConditions: 24 h, read-out: PYRIOR percent control rating
measureName: pest or weed control at 200 ppm

What value of pest or weed control at 200 ppm has been reported for the following compound? Cc1cc(C)cc(C2=NN(CCOC(=O)Nc3ccc4c(c3)OCO4)C(=O)CN2)c1
80 to 100%

What value of pest or weed control at 200 ppm has been reported for the following compound? O=C1CNC(c2cccc(OCc3ccccc3)c2)=NN1CCF
50 to 79%

What value of pest or weed control at 200 ppm has been reported for the following compound? O=C1CNC(c2cc(C=Cc3ccccc3)cc(-c3ccsc3)c2)=NN1CC(F)(F)F
0 to 49%

What value of pest or weed control at 200 ppm has been reported for the following compound? O=c1cnc(-c2cccc(C(=NOCc3ccccc3)c3ccccc3)c2)nn1CC(F)(F)F
80 to 100%

What value of pest or weed control at 200 ppm has been reported for the following compound? O=C1C(SC2CCCCC2)NC(c2ccc(Oc3ccccc3)c(-c3ccccc3)c2)=NN1CC(F)(F)F (centres unmarked)
80 to 100%

---

Test system: Pyricularia oryzae
experiment: whole plant or invertebrate
Format: in vivo
protocolConditions: 24 h, read-out: PYRIOR percent control rating
measureName: pest or weed control at 200 ppm

>>> print(df.to_string())
                                   compound       assayedtarget  measuredvalue
0  O=C1CNC(c2cc(Cl)cc(Cl)c2)=NN1CO [Compound 8]  Pyricularia oryzae       0 to 49%
1  O=C1CNC(c2cccc(/C=C3/CCc4ccccc43)c2)=NN1CC(F)(F)F [Compound 72]  Pyricularia oryzae     80 to 100%
2  CON=C(c1ccccc1)c1cccc(C2=NN(CC(F)(F)F)C(=O)CN2)c1 [Compound 75]  Pyricularia oryzae     80 to 100%
3  O=c1cnc(-c2ccc(N3CCOCC3)cc2)nn1CC(F)(F)F [Compound 77]  Pyricularia oryzae     80 to 100%

What value of pest or weed control at 200 ppm has been reported for the following compound? O=C1CNC(c2cc(Cl)cc(Cl)c2)=NN1CN1CCOCC1 [Compound 15]
80 to 100%

---

Reported pest or weed control at 200 ppm is given for each of the following compounds.
System: Colletotricum lagenarium
experiment: Cucumber Anthracnose greenhouse one-day protectant test
Type: in vivo
protocolConditions: Cucumis sativus, 24 h, cucumber plants, one-day protectant test, 200 ppm application rate; read-out: COLLLA percent control rating

>>> print(df.to_string())
                                   compound                      measurename  measuredvalue
0  O=C1CNC(c2cccc(Oc3ccnc(Cl)c3)c2)=NN1CC(F)(F)F [Compound 33]  pest or weed control at 200 ppm       0 to 49%
1  O=C(c1ccccc1)c1cccc(C2=NN(CC(F)(F)F)C(=O)C(SC3CCCCC3)N2)c1 (stereo not drawn) [Compound 54]  pest or weed control at 200 ppm      50 to 79%
2  COc1ccccc1-c1cccc(C2=NN(CC(F)(F)F)C(=O)C(SC3CCCCC3)N2)c1 (stereo not drawn) [Compound 53]  pest or weed control at 200 ppm      50 to 79%
3  O=C1CNC(c2cccc(Oc3cc(C(F)(F)F)cc(C(F)(F)F)n3)c2)=NN1CC(F)(F)F [Compound 24]  pest or weed control at 200 ppm       0 to 49%
4  Cc1cc(C)cc(-c2ncc(=O)n(Cc3c(F)c(F)c(F)c(F)c3F)n2)c1 [Compound 85]  pest or weed control at 200 ppm     80 to 100%

Please turn your attention to the following entry.
What value of pest or weed control at 200 ppm has been reported for the following compound? O=C1CNC(c2cccc(Cc3ccccc3)c2)=NN1CC(F)(F)F [Compound 73]
0 to 49%

---

System: Colletotricum lagenarium
experiment: Cucumber Anthracnose greenhouse one-day protectant test
Type: in vivo
protocolConditions: Cucumis sativus, 24 h, cucumber plants, one-day protectant test, 200 ppm application rate; read-out: COLLLA percent control rating
Reported pest or weed control at 200 ppm is given for each of the following compounds.

Sample answers from the record:
>>> print(df.to_string())
                                   compound             assayedtarget                      measurename  measuredvalue
0  O=C1C(SC2CCCCC2)NC(c2cccc(I)c2)=NN1CC(F)(F)F (stereo not drawn)  Colletotricum lagenarium  pest or weed control at 200 ppm     80 to 100%
1  O=c1cnc(-c2cc(Br)cc(-c3ccsc3)c2)nn1Cc1ccccc1  Colletotricum lagenarium  pest or weed control at 200 ppm       0 to 49%
2  O=C1CNC(c2ccc(Cl)c(Cl)c2)=NN1C(=O)C(F)(F)F  Colletotricum lagenarium  pest or weed control at 200 ppm      50 to 79%
3  Cc1cc(C)cc(C2=NN(CC(F)(F)F)C(=O)C(SCCCCl)N2)c1 (stereo not drawn)  Colletotricum lagenarium  pest or weed control at 200 ppm     80 to 100%
4  O=C1C(SC2CCCCC2)NC(c2ccc(Oc3ccccc3)c(-c3ccccc3)c2)=NN1CC(F)(F)F (stereo not drawn)  Colletotricum lagenarium  pest or weed control at 200 ppm      50 to 79%

What value of pest or weed control at 200 ppm has been reported for the following compound? O=c1cnc(-c2ccc(F)c(Br)c2)nn1Cc1ccc(Cl)nc1
50 to 79%

What value of pest or weed control at 200 ppm has been reported for the following compound? O=C1CNC(c2cccc(C#Cc3ccccc3)c2)=NN1CC(F)(F)F
0 to 49%

What value of pest or weed control at 200 ppm has been reported for the following compound? O=C1CNC(c2ccc(Oc3cccnc3)cc2)=NN1CC(F)(F)F
0 to 49%

What value of pest or weed control at 200 ppm has been reported for the following compound? O=C1C(SC2CCCCC2)NC(c2cc(Br)cc(Br)c2)=NN1CC(F)(F)F (stereo not drawn)
80 to 100%

Data origin, for the record: patent US7473669B2
